procedure_text: viability loss of HPDE-C7K cells – cell-based, fluorescence, HTS, primary screen (AID 431);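 also: 0% = DMSO solvent wells and 100% = doxorubicin-treated wells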
test_context: HPDE-C7K KRASV12 cells, Alamar Blue viability, 48 h; at 10 µM
In all, about 63,000 compounds went through this assay and about 1,100 (1.7%) were called active.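 The calls were made as follows: active = compounds whose percent cytotoxicity in the single-dose primary screen, scaled between solvent and toxic-drug controls, exceeds 50; inactive = the rest.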 The sample holds actives, similar compounds and a random draw of the others, so the mix is not that of the screen. Potency and affinity values are given separately.
Outcome codes: class 1 (active), class 0 (inactive)

# compound, cat
data = [
    ("Cc1ccc(Cl)cc1N(CC(=O)NC1CCCCC1)S(C)(=O)=O", "class 0"),
    ("CSc1nc2sc3c(c2c2nnnn12)CCC3", "class 0"),
    ("CCOC(=O)c1c(C)[nH]c(C(=O)OCC(=O)N2CCc3ccccc32)c1C", "class 0"),
    ("CCOC(=O)c1[nH]c2ccccc2c1NC(=O)CN1CCCCC1", "class 0"),
    ("CC1(C)OC(=O)C2(Cc3ccccc3N3CCCCC32)C(=O)O1 (centres undefined)", "class 0"),
    ("CC(=O)c1ccc(C(=O)Nc2nnc(-c3ccc(Cl)cc3)o2)cc1", "class 0"),
    ("Cc1ccc(CNC(=O)C2CCN(S(=O)(=O)c3cccs3)CC2)o1", "class 0"),
    ("COc1cc(NS(=O)(=O)c2ccc(C)cc2C)cc(OC)c1OC", "class 0"),
    ("COc1ccccc1Cn1c2nc3ccccc3nc2c2c(=O)n(CC(C)C)cnc21", "class 0"),
    ("CCN(CC)c1ccc(NC(=O)c2cc3ccccc3o2)c(C)c1", "class 0"),
    ("Cc1ccc2[nH]c(=O)c(CN(Cc3ccc4c(c3)OCO4)Cc3nnnn3C3CCCC3)cc2c1", "class 0"),
    ("C=CCn1c(SCC(=O)Nc2ccc(C(=O)OCC)cc2)nnc1-c1cccs1", "class 0"),
    ("Cc1nc(Sc2nnnn2C)c2c3c(sc2n1)CCC3", "class 1"),
    ("C=CCn1c(N)c(C(=O)OC(C)CC)c2nc3ccccc3nc21 (centres undefined)", "class 0"),
    ("Cc1ccc2[nH]c(=O)c(CN(Cc3ccccc3)Cc3nnnn3C3CCCC3)cc2c1", "class 0"),
    ("CCOC(=O)N1CCN(c2cc(NCCC(=O)O)c3c4c(onc24)-c2ccccc2C3=O)CC1", "class 1"),
    ("CCOC(=O)CC(=O)Nc1nnc(CC(C)C)s1", "class 0"),
    ("Cc1cccc2cc(CN(CCCO)C(=O)Nc3ccccc3Cl)c(=O)[nH]c12", "class 0"),
    ("O=C(O)c1cc(C(=O)O)c(-c2ccccc2)c(C(=O)O)c1", "class 0"),
    ("COc1ccc(S(=O)(=O)n2nc(OC(=O)c3c(-c4ccccc4Cl)noc3C)cc2N)cc1", "class 1"),
    ("O=C(O)c1cccc(S(=O)(=O)Nc2ccc3oc(=O)sc3c2)c1", "class 0"),
    ("OC1C=CSc2nc3ccccc3n21 (centres undefined)", "class 0"),
    ("CC(=O)Nc1ccc(S(=O)(=O)N2CCN(c3cc(C)nc4ccccc34)CC2)cc1", "class 0"),
    ("CCc1nnc(NC(=O)c2ccc(COc3ccc(C)cc3)o2)s1", "class 0"),
    ("CC(=O)OCCNc1cc(N2CCN(C)CC2)c2noc3c2c1C(=O)c1ccccc1-3", "class 0"),
    ("O=C(O)CCN1Cc2ccccc2C1=O", "class 0"),
    ("COc1ccccc1C(=O)Nc1nnc(-c2ccc(Cl)cc2)o1", "class 0"),
    ("Cc1cc(C)n2nc(-c3cccnc3)nc2n1", "class 0"),
    ("O=C(O)CCCNc1cc(N2CCC3(CC2)OCCO3)c2noc3c2c1C(=O)c1ccccc1-3", "class 0"),
    ("CC(=O)Oc1cccc2c1C(=O)c1c(OC(C)=O)cc(C(=O)O)cc1C2=O", "class 0"),
    ("Cc1ccc2cc(CN(Cc3ccccc3)Cc3nnnn3C3CCCC3)c(=O)[nH]c2c1", "class 1"),
    ("CCOC(=O)c1c(C)[nH]c(C)c1-c1ccccc1OC", "class 0"),
    ("Cc1ccc2cc(CN(Cc3ccc(F)cc3)Cc3nnnn3C3CCCC3)c(=O)[nH]c2c1", "class 0"),
    ("N#Cc1cccc(C(c2nnnn2CCc2ccccc2)N2CCN(C3CCCCC3)CC2)c1 (centres undefined)", "class 0"),
    ("COC(=O)CSc1nnc(-c2ccccc2OC)o1", "class 0"),
    ("N=c1c(C(=O)NCc2ccccc2)cc2c(=O)n3ccccc3nc2n1Cc1ccco1", "class 0"),
    ("Cc1ccc(CNC(=O)c2cc3c(=O)n4ccccc4nc3n(Cc3ccco3)c2=N)cc1", "class 1"),
    ("Cc1onc(-c2ccccc2Cl)c1C(=O)Oc1cc(N)n(S(=O)(=O)c2ccc(F)cc2)n1", "class 0"),
    ("COc1cccc(C(=O)Nc2nnc(-c3ccc(F)cc3)o2)c1", "class 0"),
]
